MEASURED_TARGET: JAK3 (Homo sapiens)
Construct: purchased Reaction Biology Corporation
Sequence (P52333 1-1124): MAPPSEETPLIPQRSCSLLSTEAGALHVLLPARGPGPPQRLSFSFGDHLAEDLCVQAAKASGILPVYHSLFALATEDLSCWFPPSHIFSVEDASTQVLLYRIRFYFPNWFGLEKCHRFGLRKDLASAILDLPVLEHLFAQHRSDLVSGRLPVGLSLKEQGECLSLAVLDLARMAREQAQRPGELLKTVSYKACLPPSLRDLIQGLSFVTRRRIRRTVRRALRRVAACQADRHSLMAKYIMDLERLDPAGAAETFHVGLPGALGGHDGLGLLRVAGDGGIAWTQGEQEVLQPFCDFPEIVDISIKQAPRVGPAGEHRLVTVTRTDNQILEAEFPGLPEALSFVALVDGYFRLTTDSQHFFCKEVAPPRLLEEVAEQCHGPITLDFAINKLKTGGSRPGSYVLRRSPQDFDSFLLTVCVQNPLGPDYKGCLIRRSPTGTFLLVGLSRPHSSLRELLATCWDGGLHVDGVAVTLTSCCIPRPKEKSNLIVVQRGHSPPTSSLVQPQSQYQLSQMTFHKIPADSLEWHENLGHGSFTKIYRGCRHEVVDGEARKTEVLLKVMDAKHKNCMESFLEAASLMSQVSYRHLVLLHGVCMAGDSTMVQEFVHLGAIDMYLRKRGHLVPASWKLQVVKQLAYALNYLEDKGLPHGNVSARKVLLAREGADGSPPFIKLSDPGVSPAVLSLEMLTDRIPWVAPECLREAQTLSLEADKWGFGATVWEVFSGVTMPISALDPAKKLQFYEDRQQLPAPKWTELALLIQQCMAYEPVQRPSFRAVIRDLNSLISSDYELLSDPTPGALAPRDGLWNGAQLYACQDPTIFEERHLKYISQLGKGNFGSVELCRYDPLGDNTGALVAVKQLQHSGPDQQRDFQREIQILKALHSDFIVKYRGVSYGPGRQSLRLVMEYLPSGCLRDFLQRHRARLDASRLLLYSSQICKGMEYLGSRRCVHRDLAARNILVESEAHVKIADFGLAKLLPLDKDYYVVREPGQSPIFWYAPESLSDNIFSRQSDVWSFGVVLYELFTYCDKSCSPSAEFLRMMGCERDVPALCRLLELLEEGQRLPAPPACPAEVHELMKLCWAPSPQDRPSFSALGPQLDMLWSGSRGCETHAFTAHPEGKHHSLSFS
TEST_SUMMARY: Radiometric kinase assay (Reaction Biology HotSpot)
Type: biochemical
MEASUREMENT_CONTEXT: in words, data not shown
QUANTITY: JAK3 IC50 of nonreactive analogs (not shown)

Request: Item under review: c1ccc(-c2c[nH]c3ncccc23)cc1 [Compound 9c, 3-phenyl-1H-pyrrolo[2,3-b]pyridine] . Reported JAK3 IC50 of nonreactive analogs (not shown)?
Result: micromolar range

Request: Query CCC(=O)Nc1cccc(-c2c[nH]c3ncccc23)c1 [Compound 9b] next
Result: micromolar range

Request: Okay, and NC(=O)c1cnc2[nH]cc(-c3ccccc3)c2c1 [Compound 10c] ?
Result: micromolar range

Request: Same read-out for CCC(=O)Nc1cccc(-c2c[nH]c3ncc(C(N)=O)cc23)c1 [Compound 10b] ?
Result: micromolar range

----------
MEASURED_TARGET: kinase domain of JAK3 (Homo sapiens, UniProt P52333)
Construct: The kinase domains of JAK3 and BMX at 2 μM; made in house
TEST_SUMMARY: Thermal shift (ΔTm) assay
Format: binding
MEASUREMENT_CONTEXT: 2 μM kinase domain, 10 μM inhibitor; mean ± SD of at least three measurements
QUANTITY: ΔTm at 10 µM (°C)

Request: Entry under review: C=CC(=O)Nc1cccc(-c2c[nH]c3ncc(NC(=O)c4cccs4)cc23)c1 [Compound 12c] . Reported ΔTm at 10 µM?
Result: 7.36

(A) C=CC(=O)Nc1cccc(-c2c[nH]c3ncc(C(=O)NCC4CC4)cc23)c1 [Compound 11e]
(B) C=CC(=O)Nc1cccc(-c2c[nH]c3ncc(C(N)=O)cc23)c1 [Compound 10a]
Request: I would appreciate it if you could say which entry, A or B , has the lower ΔTm at 10 µM value. Indicate which entry you chose by stating its label.
Result: A

----------
MEASURED_TARGET: kinase domain of BMX (Homo sapiens, UniProt P51813)
Construct: The kinase domains of JAK3 and BMX at 2 μM
Sequence (P51813 417-675 limits assumed): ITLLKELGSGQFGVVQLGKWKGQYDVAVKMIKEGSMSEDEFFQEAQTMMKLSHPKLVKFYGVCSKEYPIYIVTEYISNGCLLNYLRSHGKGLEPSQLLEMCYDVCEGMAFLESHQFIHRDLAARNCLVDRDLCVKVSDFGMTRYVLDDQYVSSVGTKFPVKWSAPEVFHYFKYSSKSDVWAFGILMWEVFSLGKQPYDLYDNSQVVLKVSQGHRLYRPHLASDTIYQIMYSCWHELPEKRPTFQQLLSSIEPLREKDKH
TEST_SUMMARY: Mass spectrometric investigation of covalent binding to BMX (ESI-TOF)
MEASUREMENT_CONTEXT: 1.5-fold molar excess of inhibitor, 4 °C, 120 min
QUANTITY: native (unmodified) BMX fraction, 120 min (%)

Request: What does the record list as native (unmodified) BMX fraction, 120 min for "CCC(=O)Nc1cccc(-c2c[nH]c3ncccc23)c1" ?
Result: 100

(A) CCC(=O)Nc1cccc(-c2c[nH]c3ncc(NC(=O)C4CCCC4)cc23)c1 [Compound 12b]
(B) C=CC(=O)Nc1cccc(-c2c[nH]c3ncc(C(=O)NC4CCCC4)cc23)c1 [Compound 11a]
Request: Which has the smaller recorded native (unmodified) BMX fraction, 120 min, A or B ? # reply format: chosen label
Result: B
(B: 11%, A: 100%)

(a) CCC(=O)Nc1cccc(-c2c[nH]c3ncc(C(N)=O)cc23)c1 [Compound 10b]
(b) C=CC(=O)Nc1cccc(-c2c[nH]c3ncc(NC(=O)CC4CCCC4)cc23)c1 [Compound 12g]
Request: Could you check which of a and b has a smaller value for native (unmodified) BMX fraction, 120 min? Pick one and reply with its label.
Result: b

----------
System: glutathione (GSH)
TEST_SUMMARY: Glutathione reactivity / stability against GSH
Format: physicochemical
MEASUREMENT_CONTEXT: glutathione (GSH) in PBS buffer, pH 7.4, 5 mM GSH, read-out: half-life (t1/2) against glutathione (converted)
QUANTITY: half-life at 25 µM (h)

(1) C=CC(=O)Nc1cccc(-c2c[nH]c3ncc(NC(=O)c4cccs4)cc23)c1 [Compound 12c]
(2) CN(C)C/C=C/C(=O)Nc1cc2c(Nc3ccc(F)c(Cl)c3)ncnc2cc1O[C@H]1CCOC1 [Afatinib, reference compound]
Request: Which record would sort first by descending half-life at 25 µM, 1 or 2 ? // return label of chosen record
Result: 1

----------
Form: system (UniProtKB P23458), quantity (IC50), values below.
Sequence (P23458 whole entry): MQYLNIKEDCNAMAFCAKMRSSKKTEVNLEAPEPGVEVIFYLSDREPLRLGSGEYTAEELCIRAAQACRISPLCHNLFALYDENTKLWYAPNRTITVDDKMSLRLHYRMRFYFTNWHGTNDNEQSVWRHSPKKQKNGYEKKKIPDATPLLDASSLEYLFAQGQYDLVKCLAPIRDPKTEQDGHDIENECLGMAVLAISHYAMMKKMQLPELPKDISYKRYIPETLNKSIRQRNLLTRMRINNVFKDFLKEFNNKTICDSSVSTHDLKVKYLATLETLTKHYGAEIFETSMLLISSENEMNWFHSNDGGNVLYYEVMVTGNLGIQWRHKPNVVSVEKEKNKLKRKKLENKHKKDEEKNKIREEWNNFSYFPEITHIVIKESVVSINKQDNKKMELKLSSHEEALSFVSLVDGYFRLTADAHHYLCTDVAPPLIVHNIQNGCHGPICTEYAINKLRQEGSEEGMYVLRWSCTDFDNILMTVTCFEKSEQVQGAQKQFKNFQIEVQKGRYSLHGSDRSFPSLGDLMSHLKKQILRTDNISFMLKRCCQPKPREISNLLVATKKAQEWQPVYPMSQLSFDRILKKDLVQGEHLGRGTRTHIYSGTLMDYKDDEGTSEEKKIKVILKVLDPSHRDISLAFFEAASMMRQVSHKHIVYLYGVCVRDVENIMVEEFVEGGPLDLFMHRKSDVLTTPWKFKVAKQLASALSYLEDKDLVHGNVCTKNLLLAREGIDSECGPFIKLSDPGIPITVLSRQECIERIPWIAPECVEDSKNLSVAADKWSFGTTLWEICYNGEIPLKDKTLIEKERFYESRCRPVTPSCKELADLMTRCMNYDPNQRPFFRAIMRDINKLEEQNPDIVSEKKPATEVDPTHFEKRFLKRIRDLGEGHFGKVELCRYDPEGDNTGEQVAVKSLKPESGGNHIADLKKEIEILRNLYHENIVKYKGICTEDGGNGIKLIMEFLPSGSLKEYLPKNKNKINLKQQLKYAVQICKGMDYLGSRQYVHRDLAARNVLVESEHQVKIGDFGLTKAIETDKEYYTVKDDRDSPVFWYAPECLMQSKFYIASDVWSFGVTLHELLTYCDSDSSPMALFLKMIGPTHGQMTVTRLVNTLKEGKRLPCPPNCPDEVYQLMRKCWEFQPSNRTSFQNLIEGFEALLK
QUANTITY: IC50 (µM)

(a) C=CC(=O)Nc1cccc(-c2c[nH]c3ncc(C(N)=O)cc23)c1 [Compound 10a]
(b) C=CC(=O)Nc1cccc(-c2c[nH]c3ncccc23)c1 [Compound 9a]
Request: Looking only at measured IC50, which entry is lower, a or b ? Give the label of your selection.
Result: a
(a: 0.46 µM, b: 2.97 µM)

----------
The listing below reports IC50 for compounds tested on UniProt:P29597.
Sequence (P29597 whole entry): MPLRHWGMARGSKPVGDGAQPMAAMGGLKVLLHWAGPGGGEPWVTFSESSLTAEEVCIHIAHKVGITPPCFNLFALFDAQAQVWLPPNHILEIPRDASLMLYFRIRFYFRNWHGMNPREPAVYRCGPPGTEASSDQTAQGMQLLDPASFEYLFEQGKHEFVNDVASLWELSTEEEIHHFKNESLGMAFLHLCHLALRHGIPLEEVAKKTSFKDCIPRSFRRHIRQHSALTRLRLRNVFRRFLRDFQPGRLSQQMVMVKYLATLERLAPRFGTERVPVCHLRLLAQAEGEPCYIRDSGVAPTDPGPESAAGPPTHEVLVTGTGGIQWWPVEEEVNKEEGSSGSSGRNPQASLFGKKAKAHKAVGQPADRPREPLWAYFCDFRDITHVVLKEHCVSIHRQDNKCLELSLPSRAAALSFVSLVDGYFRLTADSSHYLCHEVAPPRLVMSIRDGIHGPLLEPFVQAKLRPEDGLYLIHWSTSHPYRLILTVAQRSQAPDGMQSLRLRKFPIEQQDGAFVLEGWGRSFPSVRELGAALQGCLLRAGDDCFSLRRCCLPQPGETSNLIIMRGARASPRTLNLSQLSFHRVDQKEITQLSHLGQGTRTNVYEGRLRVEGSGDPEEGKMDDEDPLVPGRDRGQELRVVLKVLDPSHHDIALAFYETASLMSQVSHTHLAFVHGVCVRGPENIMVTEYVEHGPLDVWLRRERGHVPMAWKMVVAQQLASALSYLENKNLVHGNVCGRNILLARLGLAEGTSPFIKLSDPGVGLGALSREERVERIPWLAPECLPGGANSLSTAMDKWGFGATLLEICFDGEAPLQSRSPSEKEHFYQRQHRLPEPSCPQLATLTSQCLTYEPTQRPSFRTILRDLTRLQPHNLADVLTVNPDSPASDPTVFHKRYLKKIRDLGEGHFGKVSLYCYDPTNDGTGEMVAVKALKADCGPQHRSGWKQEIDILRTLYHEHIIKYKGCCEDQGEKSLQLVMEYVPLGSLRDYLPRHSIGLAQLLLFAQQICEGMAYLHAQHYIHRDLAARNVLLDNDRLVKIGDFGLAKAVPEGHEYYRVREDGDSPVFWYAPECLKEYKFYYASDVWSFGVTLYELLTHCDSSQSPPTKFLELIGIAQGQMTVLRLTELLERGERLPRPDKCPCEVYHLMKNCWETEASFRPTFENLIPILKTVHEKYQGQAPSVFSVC
QUANTITY: IC50 (µM)

(A) C=CC(=O)Nc1cccc(-c2c[nH]c3ncccc23)c1
(B) C=CC(=O)Nc1cccc(-c2c[nH]c3ncc(C(N)=O)cc23)c1 [Compound 10a]
Request: Between A and B , whose measured IC50 reads higher? Lab log: write the label of the selected item as the result.
Result: A
(A: 5.54 µM, B: 1.9 µM)

----------
MEASURED_TARGET: kinase domain of BMX (Homo sapiens, UniProt P51813)
Construct: The kinase domains of JAK3 and BMX at 2 μM
TEST_SUMMARY: Mass spectrometric investigation of covalent binding to BMX (ESI-TOF)
MEASUREMENT_CONTEXT: 1.5-fold molar excess of inhibitor, 4 °C, 30 min
QUANTITY: native (unmodified) BMX fraction, 30 min (%)

Observe how each entry below is paired with its result.
Request: State the recorded native (unmodified) BMX fraction, 30 min for this entry: CCC(=O)Nc1cccc(-c2c[nH]c3ncc(C(N)=O)cc23)c1 [Compound 10b]
Result: 100

Request: Here is the next molecule: "CCC(=O)Nc1cccc(-c2c[nH]c3ncccc23)c1"
Result: 100

Request: Next molecule up: CCC(=O)Nc1cccc(-c2c[nH]c3ncc(C(=O)NC4CCCC4)cc23)c1 [Compound 11b]
Result: 100

(a) CCC(=O)Nc1cccc(-c2c[nH]c3ncc(NC(=O)C4CCCC4)cc23)c1 [Compound 12b]
(b) C=CC(=O)Nc1cccc(-c2c[nH]c3ncc(C(=O)NC4CCCC4)cc23)c1 [Compound 11a]
Request: Please indicate which has the smaller reported native (unmodified) BMX fraction, 30 min: a , or b . Respond with the label that goes with your answer.
Result: b

----------
MEASURED_TARGET: kinase domain of BMX (Homo sapiens, UniProt P51813)
Construct: The kinase domains of JAK3 and BMX at 2 μM
TEST_SUMMARY: Mass spectrometric investigation of covalent binding to BMX (ESI-TOF)
MEASUREMENT_CONTEXT: 1.5-fold molar excess of inhibitor, 4 °C, 120 min
Protocol: The kinase domain of BMX was diluted to 0.05 mM with buffer containing 20 mM Tris pH 8.0, 200 mM NaCl, 0.5 mM TCEP (pH 7.0) and was subsequently mixed with 0.075 mM inhibitors (ratio of protein to inhibitor of 1:1.5). The mixture was incubated at 4°C. The samples were taken at different time points, the reaction stopped by diluting the sample with a 200-fold excess of 1% formic acid. The denatured protein and the adducts were assessed using electrospray time-of-flight (ESI-TOF) mass spectrometry.
QUANTITY: BMX covalent adduct fraction, 120 min (%)

Request: # lookup: BMX covalent adduct fraction, 120 min of C=CC(=O)Nc1cccc(-c2c[nH]c3ncc(NC(=O)Cc4cccs4)cc23)c1 [Compound 12i]
Result: 100

Request: Record: C=CC(=O)Nc1cccc(-c2c[nH]c3ncc(C(=O)NC4CCCC4)cc23)c1 [Compound 11a]
Result: 89

Request: Would you mind doing C=CC(=O)Nc1cccc(-c2c[nH]c3ncccc23)c1 [Compound 9a] as well?
Result: 100

Request: Okay, and C=CC(=O)Nc1cccc(-c2c[nH]c3ncc(NC(=O)c4cccs4)cc23)c1 [Compound 12c] ?
Result: 100

Request: // repeat for C=CC(=O)Nc1cccc(-c2c[nH]c3ncc(C(N)=O)cc23)c1 [Compound 10a] and report
Result: 100

Request: Follow-up entry: C=CC(=O)Nc1cccc(-c2c[nH]c3ncc(NC(=O)CC4CCCC4)cc23)c1 [Compound 12g]
Result: 99
